Data credit: paper PMC10674446

Tested on: MCF7 breast cancer
RUN_DESCRIPTION: MTT cell viability assay, MCF7
Format: cell-based, human
EXPERIMENTAL_CONTEXT: 72 h; SI = IC50 L6 / IC50 MCF-7
ASSAY_ENDPOINT: Selectivity Index (SI), MCF-7

- MOLECULAR_STRING: "c1ccc(CN2c3ccncc3Sc3ccncc32)c(CN2c3ccncc3Sc3ccncc32)c1"
  ASSAY_ENDPOINT: "Selectivity Index (SI), MCF-7"
  RECORDED_VALUE: 3.51
- MOLECULAR_STRING: "c1ccc(CN2c3cnccc3Sc3cccnc32)c(CN2c3cnccc3Sc3cccnc32)c1"
  ASSAY_ENDPOINT: "Selectivity Index (SI), MCF-7"
  RECORDED_VALUE: 1.59
- MOLECULAR_STRING: "c1cnc2c(c1)Sc1ncccc1N2Cc1ccc(CN2c3cccnc3Sc3cccnc32)cc1"
  ASSAY_ENDPOINT: "Selectivity Index (SI), MCF-7"
  RECORDED_VALUE: 1.22
- MOLECULAR_STRING: "c1cc(CN2c3cnccc3Sc3cccnc32)nc(CN2c3cnccc3Sc3cccnc32)c1"
  ASSAY_ENDPOINT: "Selectivity Index (SI), MCF-7"
  RECORDED_VALUE: 1.80
- MOLECULAR_STRING: "c1cc(CN2c3ccncc3Sc3ccncc32)nc(CN2c3ccncc3Sc3ccncc32)c1"
  ASSAY_ENDPOINT: "Selectivity Index (SI), MCF-7"
  RECORDED_VALUE: 1.41
